Where these numbers come from: ChEMBL document CHEMBL1133441

Tgt: NAD(P)H dehydrogenase [quinone] 1 (Homo sapiens) (UniProt P15559)
Sequence (P15559 whole entry): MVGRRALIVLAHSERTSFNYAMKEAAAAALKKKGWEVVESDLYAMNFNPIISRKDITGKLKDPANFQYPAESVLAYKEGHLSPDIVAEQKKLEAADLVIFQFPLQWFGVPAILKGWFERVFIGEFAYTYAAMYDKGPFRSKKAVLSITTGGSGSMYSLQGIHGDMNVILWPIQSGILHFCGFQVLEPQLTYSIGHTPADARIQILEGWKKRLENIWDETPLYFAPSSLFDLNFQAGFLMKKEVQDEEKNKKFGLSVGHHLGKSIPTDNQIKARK
Assay Details: Ratio of Vmax and Km
Parameters: unit not given here
// reported Ratio for each item listed
Hey, just send me the number, nothing else.

Solved cases below.
Molecule	Ratio
NP(=O)(OCC1=CC(=O)c2ccccc2C1=O)N(CCBr)CCBr (centres undefined)	2
O=C1C=C(COP(=O)(NCCCl)NCCCl)C(=O)c2ccccc21	2.1
NP(=O)(OCC1=CC(=O)c2ccccc2C1=O)N1CCOCC1 (centres undefined)	0.83

Could you now look at the following molecule, please?
Enquiry: Given `CC(=O)OCC1=CC(=O)c2ccccc2C1=O` , respond with its Ratio.
Return: 1.4
